test system: L1210 leukemia ip in BDF1 mice, survival T/C; assay: NCI In Vivo Anticancer Drug Screen. Data for tumor model L1210 Leukemia (intraperitoneal) in B6D2F1 (BDF1) mice; conditions: endpoint: mean survival time; dose: 12.5 mg/kg/injection; schedule: Q01DX009 (ip); vehicle: saline with Tween-80; higher = longer survival
Inconclusive results and toxic doses are left out.
quantity name: T/C

Example entries and their recorded answers appear below.
Using known records, supply T/C for `COc1ccc(N=NN(C)C)cc1`
100 % of control

Using known records, supply T/C for CC(=O)OC1CC2CC(C1C)C2(C)C (centres undefined)
105 % of control

Using known records, supply T/C for `c1ccc2c(CC3=NCCN3)cccc2c1`
96 % of control

Using known records, supply T/C for `COc1nc(C)c(C)[n+]([O-])n1`
96 % of control

Using known records, supply T/C for `COc1ccc(S(=O)(=O)N/N=C/C(=O)O)cc1`
117 % of control

Using known records, supply T/C for `O=C(Nc1ccccc1F)c1ccc(C(=O)Nc2ccccc2F)cc1`
92 % of control

Using known records, supply T/C for COC1CC2C(C[CH]1[Hg][Cl])C2(Cl)Cl (centres undefined)
96 % of control

Using known records, supply T/C for `CCN(CC)CCNc1cc(C)nc(/N=C(\N)Nc2ccc(OCc3ccccc3)cc2)n1`
98 % of control

Then there is this molecule:
Using known records, supply T/C for `O=C(C=C(C(F)(F)F)C(F)(F)F)c1ccc(C(=O)C=C(C(F)(F)F)C(F)(F)F)cc1`
89 % of control
